system: COG-LL-394h; assay: selective drug sensitivity score (sDSS, relative to normal bone marrow) (sDSS (score)); higher = more potent and effective on the cell line relative to normal bone marrow cells; details: 72 h;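 also: ALL cell lines in 384-well plates, five doses spanning 10,000-fold, each plate scaled between vehicle and 100 µmol/L benzalkonium chloride controls, sDSS an adapted area-under-curve metric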
metric: selective drug sensitivity score

| compound | readout value |
| --- | --- |
| CN(C(=O)c1ccc(F)cc1C(F)(F)F)C1CCN(c2nnc(-c3ccnn3C)c3ccccc23)CC1 [Taladegib] (top concentration 10000 nM) | 2.08 |
| CN(c1ncccc1CNc1nc(Nc2ccc3c(c2)CC(=O)N3)ncc1C(F)(F)F)S(C)(=O)=O (top concentration 10000 nM) | -0.08 |
| CC(C)C[C@H](NC(=O)[C@@H](COC(C)(C)C)NC(=O)[C@H](Cc1ccc(O)cc1)NC(=O)[C@H](CO)NC(=O)[C@H](Cc1c[nH]c2ccccc12)NC(=O)[C@H](Cc1cnc[nH]1)NC(=O)[C@@H]1CCC(=O)N1)C(=O)N[C@@H](CCCNC(=N)N)C(=O)N1CCC[C@H]1C(=O)NNC(N)=O [Goserelin] (top concentration 10000 nM) | -0.06 |

----------
tested on: NALL-1; experiment: selective drug sensitivity score (sDSS, relative to normal bone marrow) (sDSS (score)); higher = more potent and effective on the cell line relative to normal bone marrow cells; settings: 72 h

| molecule | selective drug sensitivity score |
| --- | --- |
| CO[C@H](C(=O)[C@@H](O)[C@@H](C)O)[C@@H]1Cc2cc3cc(O[C@H]4C[C@@H](O[C@H]5C[C@@H](O)[C@H](O)[C@@H](C)O5)[C@@H](O)[C@@H](C)O4)c(C)c(O)c3c(O)c2C(=O)[C@H]1O[C@H]1C[C@@H](O[C@H]2C[C@@H](O[C@H]3C[C@](C)(O)[C@H](O)[C@@H](C)O3)[C@H](O)[C@@H](C)O2)[C@H](O)[C@@H](C)O1 [Plicamycin] (top concentration 10000 nM) | -17 |
| COC(=O)N[C@@H](C)CNc1nccc(-c2cn(C(C)C)nc2-c2cc(Cl)cc(NS(C)(=O)=O)c2F)n1 [Encorafenib] (top concentration 1000 nM) | 0 |
| CCN(c1cc(-c2ccc(CN3CCOCC3)cc2)cc(C(=O)NCc2c(C)cc(C)[nH]c2=O)c1C)C1CCOCC1 [Tazemetostat] (top concentration 10000 nM) | 8.22 |
| CC[C@@H]1C(=O)OC[C@@H]1Cc1cncn1C [Pilocarpine] (top concentration 40000 nM) | 7.44 |

----------
tested on: KASUMI-2; test: selective drug sensitivity score (sDSS, relative to normal bone marrow) (sDSS (score)); higher = more potent and effective on the cell line relative to normal bone marrow cells; conditions: 72 h
Each entry below carries its recorded selective drug sensitivity score.

| molecule | selective drug sensitivity score |
| --- | --- |
| Cc1[nH]nc(C(F)(F)F)c1Cc1sc2c(c1C(=O)N1C[C@](C)(O)CO1)c(=O)n(C)c(=O)n2C(C)C [AZD3965] (top concentration 1000 nM) | 3.8 |
| Cc1c(-c2c(-c3ccc(F)o3)sc3ncnc(O[C@H](Cc4ccccc4OCc4ccnn4CC(F)(F)F)C(=O)O)c23)ccc(OCCN2CCN(C)CC2)c1Cl (top concentration 1000 nM) | -4.34 |
| COc1cc(N2CCN(C)CC2)ccc1Nc1nccc(-c2cn(C)c3cnccc23)n1 [AZ191] (top concentration 10000 nM) | -5.12 |
| Nc1cc(C(F)(F)F)c(-c2cc(N3CCOCC3)nc(N3CCOCC3)n2)cn1 [Buparlisib] (top concentration 10000 nM) | 2.08 |
| CN(C)C1CCN(C(=O)c2ccc(NC(=O)Nc3ccc(-c4nc(N5CCOCC5)nc(N5CCOCC5)n4)cc3)cc2)CC1 [Gedatolisib] (top concentration 1000 nM) | 7.56 |
| Cc1nc(NC(=O)N2CCC[C@H]2C(N)=O)sc1-c1ccnc(C(C)(C)C(F)(F)F)c1 [Alpelisib] (top concentration 2500 nM) | 1.98 |
| O=C(Nc1c[nH]nc1-c1nc2ccc(CN3CCOCC3)cc2[nH]1)NC1CC1 [AT9283] (top concentration 1000 nM) | 6.22 |
| O=C(NCc1ccncc1)C12CC3CC(C1)CC(c1ccc(Cl)cc1)(C3)C2 (top concentration 50000 nM) | -0.42 |
| Cc1nc(=O)c2cc(CN(C)c3ccc(C(=O)N[C@@H](CCC(=O)O)C(=O)O)s3)ccc2[nH]1 [Raltitrexed] (top concentration 1000 nM) | 15.8 |
| COc1ccc(-c2ccc3c(N4CCOC[C@@H]4C)nc(N4CCOC[C@@H]4C)nc3n2)cc1CO [AZD8055] (top concentration 10000 nM) | 14.6 |
| Nc1cc(F)ccc1NC(=O)c1ccc(CNC(=O)/C=C/c2cccnc2)cc1 [Tucidinostat] (top concentration 10000 nM) | 8.84 |
| CCN(CCO)CCCOc1ccc2c(Nc3cc(CC(=O)Nc4cccc(F)c4)[nH]n3)ncnc2c1 [AZD1152-HQPA] (top concentration 1000 nM) | 6.44 |
| COC12C(COC(N)=O)C3=C(C(=O)C(C)=C(N)C3=O)N1CC1NC12 (stereo in doubt) [Mitomycin_C] (top concentration 10000 nM) | 4.24 |
| COC(=O)N[C@@H](C)CNc1nccc(-c2cn(C(C)C)nc2-c2cc(Cl)cc(NS(C)(=O)=O)c2F)n1 [Encorafenib] (top concentration 1000 nM) | 0 |
| CCN(c1cc(-c2ccc(CN3CCOCC3)cc2)cc(C(=O)NCc2c(C)cc(C)[nH]c2=O)c1C)C1CCOCC1 [Tazemetostat] (top concentration 10000 nM) | -0.08 |
| CCCCCCCCc1ccc(CCC(N)(CO)CO)cc1 [Fingolimod] (top concentration 10000 nM) | -0.82 |
| CCCCCCCCCCCCCCCCOP(=O)([O-])OCC[N+](C)(C)C [Miltefosine] (top concentration 100000 nM) | 1.76 |
| CCC1=C[C@@H]2CN(C1)Cc1c([nH]c3ccccc13)[C@@](C(=O)OC)(c1cc3c(cc1OC)N(C)[C@H]1[C@@](O)(C(=O)OC)[C@H](OC(C)=O)[C@]4(CC)C=CCN5CC[C@]31[C@@H]54)C2 [Vinorelbine] (top concentration 10000 nM) | 17.8 |
| CN1CCC(CNc2ccc3ncc(-c4cccc(OC(F)(F)F)c4)n3n2)CC1 [SGI-1776] (top concentration 10000 nM) | 0.62 |
| O=C(Nc1cccc(NC(=O)c2cccc(O)c2O)c1)c1cccc(O)c1O [MST-312] (top concentration 10000 nM) | -1.6 |
| CC(=O)O[C@H]1C(=O)[C@@]2(C)[C@H]([C@H](OC(=O)c3ccccc3)[C@]3(O)C[C@H](OC(=O)[C@H](O)[C@@H](NC(=O)c4ccccc4)c4ccccc4)C(C)=C1C3(C)C)[C@]1(OC(C)=O)CO[C@@H]1C[C@@H]2O [Paclitaxel] (top concentration 1000 nM) | 18.3 |
| C[C@@H]1CCN(C(=O)CC#N)C[C@@H]1N(C)c1ncnc2[nH]ccc12 [Tofacitinib] (top concentration 5000 nM) | -7.86 |
| Cn1ncc(Cl)c1-c1cc(C(=O)N[C@H](CN)Cc2ccc(F)c(F)c2)oc1Cl [Uprosertib] (top concentration 10000 nM) | 8.3 |

----------
Each entry below carries its recorded selective drug sensitivity score.
system: RCH-ACV; test: selective drug sensitivity score (sDSS, relative to normal bone marrow) (sDSS (score)); higher = more potent and effective on the cell line relative to normal bone marrow cells; details: 72 h

| molecule | selective drug sensitivity score |
| --- | --- |
| C=CC(=O)Nc1cccc(Oc2nc(Nc3ccc(N4CCN(C)CC4)cc3)nc3ccsc23)c1 [Olmutinib] (top concentration 1000 nM) | 1.58 |
| CC[C@@H]1CN(C(=O)NCC(F)(F)F)C[C@@H]1c1cnc2cnc3[nH]ccc3n12 [Upadacitinib] (top concentration 10000 nM) | -7.16 |
| Clc1ccccc1C(c1ccccc1)(c1ccccc1)n1cccn1 [TRAM-34] (top concentration 1000 nM) | -0.08 |
| C#Cc1cccc(Nc2ncnc3cc(OCCOC)c(OCCOC)cc23)c1 [Erlotinib] (top concentration 10000 nM) | 4.26 |
| C[C@H](Nc1ncnc2nc[nH]c12)c1cc2cccc(Cl)c2c(=O)n1-c1ccccc1 [Duvelisib] (top concentration 500 nM) | 21 |
| COc1cc(C(=O)O)ccc1NC(=O)[C@@H]1N[C@@H](CC(C)(C)C)[C@](C#N)(c2ccc(Cl)cc2F)[C@H]1c1cccc(Cl)c1F [Idasanutlin] (top concentration 10000 nM) | 21 |
| COCCNCc1ccc(-c2cc3nccc(Oc4ccc(NC(=O)C5(C(=O)Nc6ccc(F)cc6)CC5)cc4F)c3s2)nc1 [Sitravatinib] (top concentration 2500 nM) | 7.38 |
| C[C@@H]1CCN(C(=O)CC#N)C[C@@H]1N(C)c1ncnc2[nH]ccc12 [Tofacitinib] (top concentration 5000 nM) | -7.86 |
| COc1cccc2c1C(=O)c1c(O)c3c(c(O)c1C2=O)C[C@@](O)(C(=O)CO)C[C@@H]3O[C@H]1C[C@H](N)[C@@H](O)[C@H](C)O1 [Epirubicin] (top concentration 1000 nM) | 12.9 |
| CCN(CC)CCNC(=O)c1c(C)[nH]c(/C=C2\C(=O)Nc3ccc(F)cc32)c1C [Sunitinib] (top concentration 1000 nM) | 1.46 |
| Nc1ccccc1NC(=O)c1ccc(CNC(=O)OCc2cccnc2)cc1 [Entinostat] (top concentration 10000 nM) | 9.98 |
| C=CC(=O)Nc1cc(Nc2nccc(-c3cn(C)c4ccccc34)n2)c(OC)cc1N(C)CCN(C)C [Osimertinib] (top concentration 2500 nM) | -1.02 |
